- assayed-target: Nuclear receptor subfamily 0 group B member 1 (Homo sapiens)
- Sequence (P51843 whole entry): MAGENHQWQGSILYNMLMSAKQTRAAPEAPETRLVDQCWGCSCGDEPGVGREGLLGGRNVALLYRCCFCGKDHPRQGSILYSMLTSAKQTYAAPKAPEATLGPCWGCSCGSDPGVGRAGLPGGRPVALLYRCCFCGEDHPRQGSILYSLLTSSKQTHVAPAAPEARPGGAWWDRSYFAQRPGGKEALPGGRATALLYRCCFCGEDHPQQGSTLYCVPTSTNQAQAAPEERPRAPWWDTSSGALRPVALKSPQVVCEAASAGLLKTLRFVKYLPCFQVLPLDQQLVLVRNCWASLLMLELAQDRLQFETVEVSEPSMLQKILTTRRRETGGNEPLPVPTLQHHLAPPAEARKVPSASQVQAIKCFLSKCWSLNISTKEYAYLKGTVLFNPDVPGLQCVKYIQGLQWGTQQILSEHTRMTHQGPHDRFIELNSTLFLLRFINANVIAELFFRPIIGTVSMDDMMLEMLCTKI
- measurement-notes: Luminescence-based cell-based high throughput dose response assay for inhibitors of the orphan nuclear receptor subfamily 0, group B, member 1 (DAX1; NR0B1). [Related pubchem assays (depositor defined):AID504766, AID504790]
- Format: functional
Active and inactive are the calls of the source.
measurement-name: IC50

Illustrative cases are given below, each with its answer.
COc1cccc(/C=N/NC(=O)c2cccs2)c1
> 67.5 µM (inactive)
O=C(O)CC(CC(=O)Nc1ccc(F)c(Cl)c1)c1ccc(Cl)cc1Cl (stereo not given)
> 67.5 µM (inactive)

IC50 for Clc1ccc(OCCn2ccnc2)c(Cl)c1 is > 67.5 µM (inactive)

Documented IC50 of COc1cc(N=Nc2ccc3ccccc3c2)ccc1O : > 67.6 µM (inactive)

Memo: Cc1cc(C)nc(NC(=O)CSc2nn(-c3ccccc3)c(=S)s2)n1 , reported IC50: > 67.5 µM (inactive)

---

- assayed-target: Rac GTPase-activating protein 1 (Homo sapiens, UniProt Q9H0H5)
- Sequence (Q9H0H5 whole entry): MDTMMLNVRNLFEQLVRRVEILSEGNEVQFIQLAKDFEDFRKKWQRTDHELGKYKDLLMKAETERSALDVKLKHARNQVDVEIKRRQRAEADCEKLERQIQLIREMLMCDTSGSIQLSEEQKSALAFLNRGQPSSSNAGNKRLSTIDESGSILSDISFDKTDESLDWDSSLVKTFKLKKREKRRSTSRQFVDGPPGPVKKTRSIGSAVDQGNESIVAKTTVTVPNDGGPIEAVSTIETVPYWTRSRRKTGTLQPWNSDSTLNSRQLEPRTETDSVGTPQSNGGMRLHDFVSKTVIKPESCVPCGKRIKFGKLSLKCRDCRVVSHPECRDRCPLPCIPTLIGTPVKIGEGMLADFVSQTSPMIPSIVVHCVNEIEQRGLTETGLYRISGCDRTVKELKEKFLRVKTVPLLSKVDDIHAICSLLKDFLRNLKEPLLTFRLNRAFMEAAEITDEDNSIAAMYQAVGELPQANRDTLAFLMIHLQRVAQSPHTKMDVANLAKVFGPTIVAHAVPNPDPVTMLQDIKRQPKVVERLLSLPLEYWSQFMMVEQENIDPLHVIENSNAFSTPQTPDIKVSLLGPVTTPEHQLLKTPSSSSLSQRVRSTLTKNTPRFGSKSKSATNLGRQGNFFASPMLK
- measurement-notes: blockers of MgcRacGAP-driven Rac1 GTP hydrolysis – biochemical, ADP Hunter fluorescence, primary and confirmatory, confirmation (AID 624330)
- Assay type: functional
Calls of active or inactive are those of the source.
measurement-name: IC50

Some molecules with recorded IC50:
Cc1cnc(C(=O)Oc2ccc(-c3ccccc3)cc2)cn1
12.5 µM (active)
COc1ccc(CNCc2cccc(OC)c2OC)cc1Br
149 µM (active)
O=C(c1ccccc1)c1coc2ccc(O)c(Cl)c12
75.4 µM (active)
Nc1[nH]c2cc([N+](=O)[O-])ccc2c1-c1ccccn1
82.9 µM (active)

Read the next record carefully.
Lab book: IC50 of Nc1nc(S)c2[nH]c(S)nc2n1 noted as 112 µM (active)

---

- assayed-target: RNA-binding protein pos-1 (Caenorhabditis elegans)
- Sequence (G5EF15 whole entry): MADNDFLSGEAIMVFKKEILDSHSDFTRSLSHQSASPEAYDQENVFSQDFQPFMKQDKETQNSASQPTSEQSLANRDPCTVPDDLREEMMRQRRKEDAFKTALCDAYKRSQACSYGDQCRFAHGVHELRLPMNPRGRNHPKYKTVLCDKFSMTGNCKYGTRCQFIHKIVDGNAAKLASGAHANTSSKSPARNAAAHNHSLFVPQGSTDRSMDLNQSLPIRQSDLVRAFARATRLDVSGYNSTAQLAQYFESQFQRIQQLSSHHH
- measurement-notes: disruptors of C. elegans POS-1 RNA interaction – biochemical, fluorescence polarization, dose response (AID 1964);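 also: purified POS-1 fused to maltose binding protein made in E. coli; potency of compounds blocking POS-1 binding to fluorescent RNA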
The source made the active and inactive calls.
measurement-name: EC50

Some solved entries appear below for comparison.
COc1cc(OC)c(OC)cc1/C=C1\Oc2cc(OS(C)(=O)=O)ccc2C1=O
> 300 µM (not active)
CC1CCc2nn(CC(=O)NCCN3CCCCC3C)cc2C1 (configuration not stated)
> 300 µM (not active)
CC(=O)Nc1ccc(/N=C/c2nc(-c3ccc(C)cc3)oc2O)cc1
> 300 µM (not active)
CCOC(=O)C1Nc2ccc(Br)cc2C2C=CCC12 (configuration not stated)
> 300 µM (not active)
COc1cc2c(cc1OC)-c1c(OC)c(OC)cc3ccnc(c13)C2=O
68.6 µM (active)

Just so you know, measured EC50 for Oc1ccc(-c2nc(-c3ccc(O)c(O)c3)cs2)cc1 came out at 33.5 µM (active)

EC50 in this record for Cc1ccc(NC(=O)Cn2c(=O)c(C)nc3ccccc32)cc1 : > 300 µM (not active)

Sure, the documented EC50 for O=C(NCCO)c1ccc2nc(-c3ccco3)c(-c3ccco3)nc2c1 is > 300 µM (not active)

Lab note: measured EC50 of Cc1ccc(-n2c(=O)c(C#N)cc3c(=O)n4ccccc4nc32)cc1C was > 300 µM (not active)

Per the records, this compound ( COc1ccccc1C(=O)Nc1ccnn1C1CCN(C(C)CSC)CC1 (configuration not stated) ) has EC50 equal to > 300 µM (not active)

Measured EC50 of COc1cccc(NS(=O)(=O)c2ccc3c(c2)C2C=CCC2C(c2ccc(C(=O)O)cc2)N3)c1 (configuration not stated) : 18 µM (inconclusive)

Looking up CCN(CC)c1ccc2cc(C#N)c(=O)oc2c1 , I found its EC50 recorded as 76.3 µM (active)

---

In this section we review reported Ki values for a set of compounds.
- assayed-target: fMet-Leu-Phe receptor (Homo sapiens)
- Sequence (P21462 whole entry): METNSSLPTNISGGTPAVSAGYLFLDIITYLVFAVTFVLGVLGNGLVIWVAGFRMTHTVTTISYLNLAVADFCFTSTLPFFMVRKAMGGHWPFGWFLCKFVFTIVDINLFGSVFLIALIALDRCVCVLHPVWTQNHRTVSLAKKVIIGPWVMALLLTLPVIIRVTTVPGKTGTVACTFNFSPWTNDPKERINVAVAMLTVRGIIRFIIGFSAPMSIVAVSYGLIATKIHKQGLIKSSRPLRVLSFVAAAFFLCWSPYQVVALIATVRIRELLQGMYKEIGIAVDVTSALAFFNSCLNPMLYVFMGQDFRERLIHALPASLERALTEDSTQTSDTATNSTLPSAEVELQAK
- measurement-notes: formyl peptide receptor binders – dose response (AID 519)
- Assay type: functional
Calls of active or inactive are those of the source.

COc1cc2c3c(c1)/C(=C1/SC(NC(C)=O)=NC1=O)C(=O)N3C(C)(C)C=C2C
> 66.7 µM (inactive)
CC1CCN(c2nc(-c3ccccc3)c(C#N)c(=O)[nH]2)CC1
> 66.7 µM (inactive)
O=C(O)CCCNc1cc(N2CCC3(CC2)OCCO3)c2noc3c2c1C(=O)c1ccccc1-3
34.1 µM (inactive)

Switching to the query record.
Documented Ki of COc1ccc2cnn(-c3ccccc3)c(=O)c2c1OC : > 66.7 µM (inactive)

---

- assayed-target: Kappa-type opioid receptor (Homo sapiens)
- Sequence (P41145 whole entry): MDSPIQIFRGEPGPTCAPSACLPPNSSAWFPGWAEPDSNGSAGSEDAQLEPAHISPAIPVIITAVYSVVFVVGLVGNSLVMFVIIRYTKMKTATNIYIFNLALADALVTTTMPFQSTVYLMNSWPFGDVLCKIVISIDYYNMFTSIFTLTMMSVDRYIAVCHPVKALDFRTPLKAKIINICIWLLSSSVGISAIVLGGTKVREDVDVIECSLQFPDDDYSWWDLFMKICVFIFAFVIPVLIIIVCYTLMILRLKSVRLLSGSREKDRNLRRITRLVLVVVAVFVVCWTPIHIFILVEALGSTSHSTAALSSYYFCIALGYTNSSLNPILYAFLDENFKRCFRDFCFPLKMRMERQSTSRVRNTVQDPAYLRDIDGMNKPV
- Assay type: functional
Calls of active or inactive are those of the source.
Just give me one of these, please: label 1 for active, label 0 for inactive

NC(=S)N/N=C/c1ncc(C(F)(F)F)cc1Cl
label 0
N=C1SCC(=O)N1c1ncc(Cc2ccc(F)cc2)s1
label 1
COc1ccc(OC)c2c1C(=O)C(Cl)=C(Cl)C2=O
label 1

Turning now to a further record.
For Cc1ccc(NC(=O)c2cc(N3C(=O)C=CC3=O)ccc2N2CCOCC2)cc1 , which call appears in the assay record?
label 1

---

- measurement-notes: Luminescence Cell-Based Dose Retest to Confirm Inhibitors of Cancer Stem Cells. [Related pubchem assays (depositor defined):AID2717, AID2721]
- Format: functional
- measurement-context: Homo sapiens
Activity calls are given as the source filed them.
Pick one and only one: true (active), false (inactive)

COc1cc2c(cc1NC(=O)c1cccc(S(=O)(=O)N(C)C)c1)oc1ccccc12
true
Cc1cccc(Nc2nc(N)c([N+](=O)[O-])c(N3CC(C)CC(C)C3)n2)c1 (stereo not given)
true
O=[N+]([O-])c1cccc(-c2cc(-c3cc(Br)ccc3O)n[nH]2)c1
true
CCn1c(=O)c([N+](=O)[O-])c(Cl)c2ccccc21
true
O=C1C=C(c2ccc(F)cc2OCc2ccccc2)C[C@@H](c2ccc(F)cc2)C1
true

Identify the outcome logged in this assay for the compound shown: Nc1ncnc2c1c(-c1ccc(Oc3ccccc3)cc1)cn2C1CCCC1
true

Answer briefly: the call reported for COc1ccc(-c2nn(-c3ccccc3)cc2/C=C2/SC(=S)N(CCC(=O)O)C2=O)c(C)c1 in this assay.
true

Hi team, can someone confirm the assay call for Oc1ccccc1/C=N/Nc1nccnc1Cl ?
true

Which outcome was assigned to CCn1c(N2CCN(S(=O)(=O)c3ccc(F)cc3)CC2)nc2ccccc21 in this test?
false

Answer briefly: the call reported for CCCCCCSc1cc(-c2nc3ccc(C)cn3c2NCCCC)ccc1OC in this assay.
true

---

- measurement-notes: Trypanosoma cruzi growth suppression in host cells – NIH3T3 host cells, beta-gal luminescence, confirmation (AID 2044);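 also: intracellular parasites grown in NIH/3T3 mouse fibroblasts as host cells; luminescent beta-galactosidase reporter signal from transgenic T. cruzi replicating inside host cells; inhibitors lower the luminescence signal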
- Assay type: functional, cell-based
Activity calls are given as the source filed them.
measurement-name: EC50

O=[N+]([O-])c1cccc(S(=O)(=O)N2CCC(c3nc(-c4ccncc4)no3)CC2)c1
1.85 µM (active)

Query CCOC(=O)C1(Cc2cccc(OC)c2)CCCN(Cc2c(C)nn(C(C)C)c2C)C1 (stereo unspecified) yields EC50 of 1.19 µM (active)

For CCn1c(=O)c([N+](=O)[O-])c(Cl)c2ccccc21 the molecule record lists EC50 as 1.89 µM (active)

---

- measurement-notes: microbe, parasite or virus in culture
- Assay type: functional
- measurement-context: Mycobacterium tuberculosis
Active and inactive are the calls of the source.
measurement-name: CC50

O=C(NCc1ccc2c(c1)OCO2)c1c(O)nc2sccn2c1=O
> 40 µM (active)
Cc1ccc(S(=O)(=O)NC(CC(C)C)C(=O)N2CCN(C/C=C/c3ccccc3)CC2)cc1 (centres undefined)
> 40 µM (active)
CCc1cc(C(=O)NNC(=O)CCl)sc1C
23.8 µM (active)

From here, focus on the item given below.
According to the records, this molecule Cc1ccc2c(c1)c(/C=C/c1cc[n+](C)cc1)c(C)n2C displays CC50 of > 40 µM (active)

---

- assayed-target: Large T antigen (Simian virus 40, UniProt P03070);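 also: Confirmatory-stage PubChem screen for compounds that inhibit SV40 T antigen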
- Sequence (P03070 whole entry): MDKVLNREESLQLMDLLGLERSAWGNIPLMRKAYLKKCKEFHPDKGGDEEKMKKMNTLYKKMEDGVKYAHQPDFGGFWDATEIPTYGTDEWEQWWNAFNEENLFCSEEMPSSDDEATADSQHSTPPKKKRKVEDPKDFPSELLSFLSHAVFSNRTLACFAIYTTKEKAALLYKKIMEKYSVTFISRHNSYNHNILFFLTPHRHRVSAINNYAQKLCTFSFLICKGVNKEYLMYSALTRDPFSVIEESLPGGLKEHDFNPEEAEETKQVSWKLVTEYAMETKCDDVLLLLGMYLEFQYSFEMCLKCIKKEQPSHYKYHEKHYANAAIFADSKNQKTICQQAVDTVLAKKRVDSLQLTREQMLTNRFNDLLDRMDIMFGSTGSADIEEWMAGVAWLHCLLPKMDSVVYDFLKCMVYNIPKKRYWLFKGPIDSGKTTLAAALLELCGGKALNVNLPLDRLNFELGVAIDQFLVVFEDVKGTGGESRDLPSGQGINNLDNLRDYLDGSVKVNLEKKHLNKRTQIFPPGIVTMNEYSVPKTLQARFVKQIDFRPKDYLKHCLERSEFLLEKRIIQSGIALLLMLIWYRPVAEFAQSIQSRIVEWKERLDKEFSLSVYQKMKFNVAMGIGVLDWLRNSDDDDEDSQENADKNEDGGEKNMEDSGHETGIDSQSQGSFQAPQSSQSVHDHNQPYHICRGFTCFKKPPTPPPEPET
- Type: functional, Betapolyomavirus macacae
Active and inactive are the calls of the source.
measurement-name: IC50

COc1cc(/C=N/NC(=O)C2COc3ccccc3O2)ccc1O (stereo not given)
8.24 µM (active)
COc1cccc(NS(=O)(=O)c2ccc3c(c2)C2C=CCC2C(c2ccc(C(=O)O)cc2)N3)c1 (stereo not given)
> 100 µM (active)
COc1cc(/C=N/NC(=O)c2nnn(-c3nonc3N)c2-c2cccs2)ccc1O
19.4 µM (active)
Cc1ccccc1/C=C/C(=O)c1ccc([N+](=O)[O-])o1
83.2 µM (active)
Oc1ccc(N2CCN(C(c3ccccn3)c3nnnn3C3CCCC3)CC2)cc1 (stereo not given)
6.25 µM (active)
CN1CCN(c2nc(Nc3ccc(O)cc3)nc3ccccc23)CC1
8.58 µM (active)
CCCn1cnc2cc(NCc3cccc(OC)c3O)ccc21
22.1 µM (active)
Oc1ccc(-c2nc(-c3ccc(O)c(O)c3)cs2)cc1
36.1 µM (active)

Noted IC50 for O=C(O)c1cc(N/N=C/c2cccc3ccccc23)ccc1Cl , tested on Large T antigen (Simian virus 40, UniProt P03070): > 100 µM (active)

Case O=Cc1cccn1-c1ccc(O)cc1 , Large T antigen (Simian virus 40, UniProt P03070), IC50 recorded as > 100 µM (active)

Reference source: ChEMBL document CHEMBL1201862
